System: HepG2 human liver carcinoma cells
Assay: MTT assay, cell viability of HepG2
Type: cell-based
Details: 48 hours, read-out: IC50 against HepG-2
property: pIC50
Give bare numbers, as −log10 of the molar value.

Looking up CC(C)CCC[C@@H](C)C1CC[C@H]2[C@@H]3CC=C4CC(OC(=O)NC(Cc5ccc(OP(=O)(O)O)cc5)C(=O)O)CC[C@]4(C)[C@H]3CC[C@]12C (stereo partly drawn) [1a, Cholesterol-(phospho)D-Tyr] , I see its pIC50 listed as 4.35
